Numbers sourced from ChEMBL document CHEMBL4177700.

biological target: Pyruvate kinase PKM (Homo sapiens, UniProt P14618); experiment: Inhibition of recombinant human N-terminal His6/SUMO-tagged PKM1 expressed in Escherichia coli BL21 using PEP as substrate incubated for 30 mins in presence of ADP by spectrophotometric based LDH enzyme coupled assay
Sequence (P14618 whole entry): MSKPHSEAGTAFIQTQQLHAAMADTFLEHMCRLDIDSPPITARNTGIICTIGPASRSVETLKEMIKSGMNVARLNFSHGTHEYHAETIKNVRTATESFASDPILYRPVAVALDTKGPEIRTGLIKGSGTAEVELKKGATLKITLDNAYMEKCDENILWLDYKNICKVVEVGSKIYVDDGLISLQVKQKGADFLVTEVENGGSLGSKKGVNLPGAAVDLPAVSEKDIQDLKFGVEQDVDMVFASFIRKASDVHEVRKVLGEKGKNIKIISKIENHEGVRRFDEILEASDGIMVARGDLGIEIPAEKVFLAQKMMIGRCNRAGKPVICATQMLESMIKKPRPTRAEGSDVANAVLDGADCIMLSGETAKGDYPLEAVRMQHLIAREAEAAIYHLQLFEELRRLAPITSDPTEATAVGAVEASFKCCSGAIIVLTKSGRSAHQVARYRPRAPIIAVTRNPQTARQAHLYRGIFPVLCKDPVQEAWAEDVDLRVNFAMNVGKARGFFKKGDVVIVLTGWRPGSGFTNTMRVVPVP
assayEndpoint: pIC50
Scale explanation: pIC50 corresponds to minus log10 of a concentration expressed in moles per litre.

Ask: // Input: `Cc1ccc(C)n1-c1ccc(O)c(C(=O)O)c1` . Output its pIC50 only.
Result: 4.00

Ask: Give pIC50 for O=c1cc(-c2ccc(O)cc2)oc2cc(O)c(O)c(O)c12 [SCUTELLAREIN]
Result: 4.00

Ask: Write down pIC50 measured for item CC(C)=CC[C@@H](O)C1=CC(=O)c2c(O)ccc(O)c2C1=O [SHIKONIN]
Result: 5.00

----------
experiment: Stability in culture medium at 200 uM after 24 hrs by HPLC analysis (reference value: 100%); assay type: physicochemical; conditions: read-out: Stability
assayEndpoint: remaining at 24 h, 200 µM (%)
Please respond with the number in % and leave the unit unwritten.

Ask: Please supply the value of reported remaining at 24 h, 200 µM for the item `O=C(CCCC[C@@H]1SC[C@@H]2NC(=O)N[C@@H]21)NCCOCCOCCNC(=O)COc1ccc(-c2cc(=O)c3c(O)c(O)c(O)cc3o2)cc1`
Result: 52

Ask: State, in one line, measured remaining at 24 h, 200 µM of `O=C1N[C@H]2[C@H](CS[C@H]2CCCCC(=O)Oc2ccc(-c3cc(=O)c4c(O)c(O)c(O)cc4o3)cc2)N1`
Result: 49

----------
assay: Stability in culture medium at 200 uM after 6 hrs by HPLC analysis (reference value: 100%); assay type: physicochemical; settings: read-out: Stability
assayEndpoint: remaining at 6 h, 200 µM

Ask: Tell me its remaining at 6 h, 200 µM given `O=C1N[C@H]2[C@H](CS[C@H]2CCCCC(=O)Oc2ccc(-c3cc(=O)c4c(O)c(O)c(O)cc4o3)cc2)N1` as the entry.
Result: 97%

Ask: Give reported remaining at 6 h, 200 µM value for `O=C(CCCC[C@@H]1SC[C@@H]2NC(=O)N[C@@H]21)NCCOCCOCCNC(=O)COc1ccc(-c2cc(=O)c3c(O)c(O)c(O)cc3o2)cc1`
Result: 87%

----------
assay: Stability in human HeLa cells at 200 uM after 3 hrs by HPLC analysis (reference value: 100%); type: ADME, cell-based; conditions: read-out: Stability
Provide the reported remaining at 3 h, 200 µM of each item.
Returns: string containing the number followed by the unit.

Ask: Read off the recorded remaining at 3 h, 200 µM for `O=C(CCCC[C@@H]1SC[C@@H]2NC(=O)N[C@@H]21)NCCOCCOCCNC(=O)COc1ccc(-c2cc(=O)c3c(O)c(O)c(O)cc3o2)cc1`
Result: 98%

Ask: Report measured remaining at 3 h, 200 µM; entry is `O=C1N[C@H]2[C@H](CS[C@H]2CCCCC(=O)Oc2ccc(-c3cc(=O)c4c(O)c(O)c(O)cc4o3)cc2)N1`
Result: 99%

----------
test: Stability in human HeLa cells at 200 uM after 6 hrs by HPLC analysis (reference value: 100%); assay type: ADME, cell-based; details: read-out: Stability
assayEndpoint: remaining at 6 h, 200 µM (%)
State just the number; it will be interpreted in %.

Ask: Report remaining at 6 h, 200 µM, nothing else, for this compound: `O=C(CCCC[C@@H]1SC[C@@H]2NC(=O)N[C@@H]21)NCCOCCOCCNC(=O)COc1ccc(-c2cc(=O)c3c(O)c(O)c(O)cc3o2)cc1`
Result: 93

Ask: Query remaining at 6 h, 200 µM for `O=C1N[C@H]2[C@H](CS[C@H]2CCCCC(=O)Oc2ccc(-c3cc(=O)c4c(O)c(O)c(O)cc4o3)cc2)N1`
Result: 85
